Data credit: ChEMBL document CHEMBL4049429

- assay-target: Adenosine receptor A2a (Homo sapiens) (UniProt P29274)
- Sequence (P29274 whole entry): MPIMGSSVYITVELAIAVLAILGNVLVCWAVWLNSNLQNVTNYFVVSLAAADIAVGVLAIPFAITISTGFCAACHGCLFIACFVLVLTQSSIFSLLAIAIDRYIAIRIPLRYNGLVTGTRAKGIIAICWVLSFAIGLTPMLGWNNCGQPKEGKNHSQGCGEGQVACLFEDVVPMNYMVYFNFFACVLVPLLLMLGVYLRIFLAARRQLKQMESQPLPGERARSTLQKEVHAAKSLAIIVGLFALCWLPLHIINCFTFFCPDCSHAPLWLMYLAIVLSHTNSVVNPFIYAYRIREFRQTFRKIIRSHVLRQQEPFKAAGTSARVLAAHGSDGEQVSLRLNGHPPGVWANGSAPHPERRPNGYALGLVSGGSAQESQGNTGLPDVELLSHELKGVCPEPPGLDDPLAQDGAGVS
- protocol: Displacement of [3H]4-(2-[7-amino-2-(2-furyl)[1,2,4]triazolo[2,3-a][1,3,5]triazin-5-ylamino]ethyl)phenol from human adenosine A2A receptor expressed in human Hela cell membranes at 1 uM after 30 mins
property-measured: inhibition (%)

Example cases with answers are listed next.
molecule	assay-target	measurement-unit	inhibition
CCOC(=O)C1=C(C)NC(=O)NC1c1ccsc1 (configuration not stated)	Adenosine receptor A2a (Homo sapiens) (UniProt P29274)	%	39
CCOC(=O)C1=C(C)NC(=O)NC1c1ccco1 (configuration not stated)	Adenosine receptor A2a (Homo sapiens) (UniProt P29274)	%	41

I = CC1=C(C(=O)OC(C)C)C(c2ccoc2)N/C(=N/C#N)N1 (racemic)
II = CCOC(=O)C1=C(C)NC(=O)NC1c1ccoc1 (configuration not stated)
III = CC1=C(C(=O)OC(C)C)C(c2ccccc2)NC(=O)N1 (configuration not stated)
Query :: Arrange the 3 molecules from largest to smallest inhibition. I would appreciate it if you listed the labels in the requested order.
Result :: II, I, III
(II: 39%, I: 25%, III: 1%)

a = CCOC(=O)C1=C(C)NC(=O)NC1c1ccccc1 (configuration not stated)
b = CCOC(=O)C1=C(C)N/C(=N\C#N)NC1c1cccs1 (racemic)
Query :: Field: lower recorded inhibition (choose a or b ) Indicate which entry you chose by stating its label.
Result :: a
(a: 10%, b: 33%)

====

- assay-target: Adenosine receptor A3 (Homo sapiens) (UniProt P0DMS8)
- Sequence (P0DMS8 whole entry): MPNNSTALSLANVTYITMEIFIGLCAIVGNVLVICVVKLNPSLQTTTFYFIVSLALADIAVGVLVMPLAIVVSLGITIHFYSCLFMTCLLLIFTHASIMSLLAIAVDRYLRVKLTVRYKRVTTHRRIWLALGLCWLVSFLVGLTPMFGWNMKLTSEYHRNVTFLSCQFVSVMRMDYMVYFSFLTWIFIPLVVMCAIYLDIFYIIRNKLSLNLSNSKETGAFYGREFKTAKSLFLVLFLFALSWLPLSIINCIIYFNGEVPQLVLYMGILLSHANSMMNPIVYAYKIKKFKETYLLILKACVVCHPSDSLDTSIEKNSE
- protocol: Displacement of [3H]NECA from human adenosine A3 receptor expressed in human Hela cell membranes at 1 uM after 180 mins
property-measured: inhibition (%)

compound	measurement-unit	readout-value
CCOC(=O)C1=C(C)N/C(=N\C#N)NC1c1ccco1 (racemic)	%	20
CC1=C(C(=O)OC(C)C)[C@H](c2ccco2)N/C(=N/C#N)N1	%	1
CCOC(=O)C1=C(C)N/C(=N\C#N)NC1c1ccsc1 (racemic)	%	23
CC1=C(C(=O)OC(C)C)C(C2CCCC2)NC(=O)N1 (stereo unspecified)	%	7
CC1=C(C(=O)OC(C)C)C(C2CCCC2)N/C(=N/C#N)N1 (racemic)	%	3
CC1=C(C(=O)OC(C)C)C(c2ccco2)N/C(=N/C#N)N1 (racemic)	%	4

P = CCOC(=O)C1=C(C)N/C(=N\C#N)NC1C1CCCC1 (racemic)
Q = CC1=C(C(=O)OC(C)C)C(c2ccco2)NC(=O)N1 (stereo unspecified)
Query :: Response body: label of entry with the larger inhibition; valid values P , Q . Field: selected label. Fill in the label of the entry you choose.
Result :: P
(P: 4%, Q: 1%)

P = CCOC(=O)C1=C(C)NC(=O)NC1c1cccs1 (stereo unspecified)
Q = CCOC(=O)C1=C(C)N/C(=N\C#N)NC1c1ccccc1 (racemic)
Query :: Smaller inhibition value? Options are P and Q Lab note: record the label of whichever item you select.
Result :: P
